Test system: NCI/ADR-RES ovarian
Assay: NCI-60 one-dose screen, 48 h
Protocol conditions: 10 µM unless noted
Compounds without any hit were thinned out: in the full panel of roughly 83,000, 20% have a hit. The source made the active and inactive calls. Rule for the calls: active = growth percent below 10; inactive = the rest.
Could you please pick one outcome from this set? active, inactive

INSERT INTO measurements (entry_smiles, classification) VALUES
  ('CCCCNC(=O)Oc1ccc(/C(=C(\C)c2ccc(Cl)cc2)c2ccc(OCCN(CC)CC)cc2)cc1', 'inactive'),
  ('c1ccc2cc(C[n+]3ccn(CCCCCCCCCCCCn4cc[n+](Cc5ccc6ccccc6c5)c4)c3)ccc2c1', 'inactive'),
  ('COc1ccc2nc(NCCCNCCO)c3sc4ccc(F)cc4c(=O)c3c2c1', 'inactive');

Which result was noted for this molecule in the test: C#Cc1cccc(NC(=O)Nc2ccccc2NC(=O)CCl)c1
active

Which result was noted for this molecule in the test: COc1cc(C(=O)c2cc(C)c3[nH]c4ccc(C)cc4c3c2C)cc(OC)c1OC
active
